System: J774
Test: Cytotoxicity against mouse J774 cells assessed as cell viability at MIC by MTT assay relative to control
Type: cell-based
EXPERIMENTAL ENDPOINT: Activity
Answer format: value, then unit.

Ask: Consider the compound `COC(=O)c1c(C(F)(F)F)[n+]([O-])c2ccc(N3CCN(c4ccc(F)cc4)CC3)cc2[n+]1[O-]` . State its measured Activity.
Reply: 64%

Ask: Provide one value: measured Activity of `CC(=O)c1c(C(F)(F)F)nc2cc(F)c(N3CCSCC3)cc2[n+]1[O-]`
Reply: 81%

Ask: Consider the compound `Cc1c(C(=O)/C=C/c2ccccc2)[n+]([O-])c2cc(Cl)ccc2[n+]1[O-]` . State its measured Activity.
Reply: 81%

Ask: Retrieve Activity measured for `CC(=O)c1c(C(F)(F)F)[n+]([O-])c2cc(F)c(N3CCCCC3)cc2[n+]1[O-]` and print it.
Reply: 53%

Ask: Name the recorded Activity of the compound listed here: `CO[C@H]1/C=C/O[C@@]2(C)Oc3c(C)c(O)c4c(O)c(c(/C=N/N5CCN(C)CC5)c(O)c4c3C2=O)NC(=O)/C(C)=C\C=C\[C@H](C)[C@H](O)[C@@H](C)[C@@H](O)[C@@H](C)[C@H](OC(C)=O)[C@@H]1C`
Reply: 87%
